From: patent US20080103205A1

test system: Meloidogyne incognita eggs; test: M. incognita egg hatching; assay type: in vivo; settings: 10 ppm, 120 hr
Would you kindly list Eggs Hatched % C* (% hatch, normalized to control) for each of these compounds?
Dear colleague, please return just the value in %, with no unit written.

Prompt: Name the recorded Eggs Hatched % C* (% hatch, normalized to control) for O=S(=O)(O)c1cc(N=C=S)ccc1/C=C/c1ccc(N=C=S)cc1S(=O)(=O)O [DIDS, reference compound] .
Completion: 68

Prompt: Would you kindly repeat that for O=C(O)c1c2ccccc2cc2ccccc12 [9-AC, anthracene-9-carboxylic acid] ?
Completion: 77

Prompt: Would you kindly repeat that for CC1(C2CCCC2)Cc2cc(OCC(=O)O)c(Cl)c(Cl)c2C1=O (single isomer, unassigned; (+)) [IAA-94] ?
Completion: 82

Prompt: Would you kindly repeat that for O=C(O)c1cc([N+](=O)[O-])ccc1NCCCc1ccccc1 [NPPB] ?
Completion: 72

###

Would you kindly list Eggs Hatched % for each of these molecules?
system: Meloidogyne incognita eggs; experiment: M. incognita egg hatching; type: in vivo; conditions: 20 ppm, 168 hr
Dear colleague, please return just the value in %, with no unit written.

Prompt: Name the recorded Eggs Hatched % for O=C(O)c1c2ccccc2cc2ccccc12 .
Completion: 18

Prompt: Would you kindly repeat that for O=C(O)c1cc([N+](=O)[O-])ccc1NCCCc1ccccc1 ?
Completion: 17

Prompt: Would you kindly repeat that for CC1(C2CCCC2)Cc2cc(OCC(=O)O)c(Cl)c(Cl)c2C1=O (single isomer, unassigned; (+)) ?
Completion: 17

Prompt: Would you kindly repeat that for O=S(=O)(O)c1cc(N=C=S)ccc1/C=C/c1ccc(N=C=S)cc1S(=O)(=O)O [DIDS, reference compound] ?
Completion: 15

###

tested on: Meloidogyne incognita eggs; experiment: M. incognita egg hatching; format: in vivo; conditions: 5 ppm, 168 hr
Would you kindly list Eggs Hatched % for each of these compounds?
Dear colleague, please return just the value in %, with no unit written.

Prompt: Name the recorded Eggs Hatched % for CC1(C2CCCC2)Cc2cc(OCC(=O)O)c(Cl)c(Cl)c2C1=O (single isomer, unassigned; (+)) [IAA-94] .
Completion: 22

Prompt: Would you kindly repeat that for O=C(O)c1cc([N+](=O)[O-])ccc1NCCCc1ccccc1 [NPPB] ?
Completion: 22

Prompt: Would you kindly repeat that for O=C(O)c1c2ccccc2cc2ccccc12 [9-AC, anthracene-9-carboxylic acid] ?
Completion: 22

Prompt: Would you kindly repeat that for O=S(=O)(O)c1cc(N=C=S)ccc1/C=C/c1ccc(N=C=S)cc1S(=O)(=O)O [DIDS, reference compound] ?
Completion: 21

###

tested on: Meloidogyne incognita eggs; assay: M. incognita egg hatching; type: in vivo; details: 5 ppm, 24 hr
METRIC_NAME: Eggs Hatched % C* (% hatch, normalized to control) (%)
Dear colleague, please return just the value in %, with no unit written.

Prompt: Fill in the recorded Eggs Hatched % C* (% hatch, normalized to control) for this compound, with Meloidogyne incognita eggs as test system: O=S(=O)(O)c1cc(N=C=S)ccc1/C=C/c1ccc(N=C=S)cc1S(=O)(=O)O [DIDS, reference compound]
Completion: 90

Prompt: Would you kindly repeat that for CC1(C2CCCC2)Cc2cc(OCC(=O)O)c(Cl)c(Cl)c2C1=O (single isomer, unassigned; (+)) ?
Completion: 100

Prompt: Would you kindly repeat that for O=C(O)c1c2ccccc2cc2ccccc12 ?
Completion: 90

Prompt: Would you kindly repeat that for O=C(O)c1cc([N+](=O)[O-])ccc1NCCCc1ccccc1 ?
Completion: 100

###

system: Meloidogyne incognita eggs; assay: M. incognita egg hatching; assay type: in vivo; conditions: 20 ppm, 24 hr
METRIC_NAME: Eggs Hatched % (%)
Dear colleague, please return just the value in %, with no unit written.

Prompt: Name the recorded Eggs Hatched % for O=S(=O)(O)c1cc(N=C=S)ccc1/C=C/c1ccc(N=C=S)cc1S(=O)(=O)O [DIDS, reference compound] .
Completion: 8

Prompt: Would you kindly repeat that for O=C(O)c1cc([N+](=O)[O-])ccc1NCCCc1ccccc1 [NPPB] ?
Completion: 9

Prompt: Would you kindly repeat that for O=C(O)c1c2ccccc2cc2ccccc12 [9-AC, anthracene-9-carboxylic acid] ?
Completion: 9

Prompt: Would you kindly repeat that for CC1(C2CCCC2)Cc2cc(OCC(=O)O)c(Cl)c(Cl)c2C1=O (single isomer, unassigned; (+)) [IAA-94] ?
Completion: 8

###

Would you kindly list Eggs Hatched % for each of these compounds?
system: Meloidogyne incognita eggs; assay: M. incognita egg hatching; type: in vivo; conditions: 2 ppm, 168 hr
Please give the number followed by its unit.

Prompt: Name the recorded Eggs Hatched % for CC1(C2CCCC2)Cc2cc(OCC(=O)O)c(Cl)c(Cl)c2C1=O (single isomer, unassigned; (+)) .
Completion: 24%

Prompt: Would you kindly repeat that for O=S(=O)(O)c1cc(N=C=S)ccc1/C=C/c1ccc(N=C=S)cc1S(=O)(=O)O [DIDS, reference compound] ?
Completion: 22%

Prompt: Would you kindly repeat that for O=C(O)c1cc([N+](=O)[O-])ccc1NCCCc1ccccc1 ?
Completion: 23%

Prompt: Would you kindly repeat that for O=C(O)c1c2ccccc2cc2ccccc12 ?
Completion: 25%

###

test system: Meloidogyne incognita eggs; assay: M. incognita egg hatching; format: in vivo; settings: 2 ppm, 72 hr
METRIC_NAME: Eggs Hatched % C* (% hatch, normalized to control) (%)
Dear colleague, please return just the value in %, with no unit written.

Prompt: Name the recorded Eggs Hatched % C* (% hatch, normalized to control) for O=C(O)c1c2ccccc2cc2ccccc12 .
Completion: 94

Prompt: Would you kindly repeat that for O=C(O)c1cc([N+](=O)[O-])ccc1NCCCc1ccccc1 ?
Completion: 87

Prompt: Would you kindly repeat that for O=S(=O)(O)c1cc(N=C=S)ccc1/C=C/c1ccc(N=C=S)cc1S(=O)(=O)O [DIDS, reference compound] ?
Completion: 87

Prompt: Would you kindly repeat that for CC1(C2CCCC2)Cc2cc(OCC(=O)O)c(Cl)c(Cl)c2C1=O (single isomer, unassigned; (+)) ?
Completion: 94

###

Would you kindly list Eggs Hatched % C* (% hatch, normalized to control) for each of these molecules?
tested on: Meloidogyne incognita eggs; assay: M. incognita egg hatching; format: in vivo; details: 20 ppm, 72 hr
Dear colleague, please return just the value in %, with no unit written.

Prompt: Name the recorded Eggs Hatched % C* (% hatch, normalized to control) for CC1(C2CCCC2)Cc2cc(OCC(=O)O)c(Cl)c(Cl)c2C1=O (single isomer, unassigned; (+)) .
Completion: 75

Prompt: Would you kindly repeat that for O=C(O)c1cc([N+](=O)[O-])ccc1NCCCc1ccccc1 ?
Completion: 69

Prompt: Would you kindly repeat that for O=C(O)c1c2ccccc2cc2ccccc12 ?
Completion: 75

Prompt: Would you kindly repeat that for O=S(=O)(O)c1cc(N=C=S)ccc1/C=C/c1ccc(N=C=S)cc1S(=O)(=O)O [DIDS, reference compound] ?
Completion: 69

###

Would you kindly list Eggs Hatched No. for each of these molecules?
system: Meloidogyne incognita eggs; experiment: M. incognita egg hatching; assay type: in vivo; details: 10 ppm, 72 hr
Give your answer as a number; write no unit.

Prompt: Name the recorded Eggs Hatched No. for CC1(C2CCCC2)Cc2cc(OCC(=O)O)c(Cl)c(Cl)c2C1=O (single isomer, unassigned; (+)) .
Completion: 88

Prompt: Would you kindly repeat that for O=C(O)c1c2ccccc2cc2ccccc12 ?
Completion: 90

Prompt: Would you kindly repeat that for O=C(O)c1cc([N+](=O)[O-])ccc1NCCCc1ccccc1 ?
Completion: 82

Prompt: Would you kindly repeat that for O=S(=O)(O)c1cc(N=C=S)ccc1/C=C/c1ccc(N=C=S)cc1S(=O)(=O)O [DIDS, reference compound] ?
Completion: 83

###

Would you kindly list Eggs Hatched No. for each of these compounds?
tested on: Meloidogyne incognita eggs; experiment: M. incognita egg hatching; format: in vivo; details: 5 ppm, 120 hr

Prompt: Name the recorded Eggs Hatched No. for O=C(O)c1cc([N+](=O)[O-])ccc1NCCCc1ccccc1 .
Completion: 118

Prompt: Would you kindly repeat that for O=C(O)c1c2ccccc2cc2ccccc12 ?
Completion: 129

Prompt: Would you kindly repeat that for CC1(C2CCCC2)Cc2cc(OCC(=O)O)c(Cl)c(Cl)c2C1=O (single isomer, unassigned; (+)) ?
Completion: 128

Prompt: Would you kindly repeat that for O=S(=O)(O)c1cc(N=C=S)ccc1/C=C/c1ccc(N=C=S)cc1S(=O)(=O)O [DIDS, reference compound] ?
Completion: 129

###

system: Meloidogyne incognita eggs; assay: M. incognita egg hatching; assay type: in vivo; conditions: 10 ppm, 120 hr
METRIC_NAME: Eggs Hatched No.

Prompt: Name the recorded Eggs Hatched No. for O=S(=O)(O)c1cc(N=C=S)ccc1/C=C/c1ccc(N=C=S)cc1S(=O)(=O)O [DIDS, reference compound] .
Completion: 103

Prompt: Would you kindly repeat that for O=C(O)c1c2ccccc2cc2ccccc12 ?
Completion: 118

Prompt: Would you kindly repeat that for CC1(C2CCCC2)Cc2cc(OCC(=O)O)c(Cl)c(Cl)c2C1=O (single isomer, unassigned; (+)) ?
Completion: 112

Prompt: Would you kindly repeat that for O=C(O)c1cc([N+](=O)[O-])ccc1NCCCc1ccccc1 ?
Completion: 105
